Target: USP8 (UniProt P40818)
Sequence (P40818 whole entry, the tested form may be a part): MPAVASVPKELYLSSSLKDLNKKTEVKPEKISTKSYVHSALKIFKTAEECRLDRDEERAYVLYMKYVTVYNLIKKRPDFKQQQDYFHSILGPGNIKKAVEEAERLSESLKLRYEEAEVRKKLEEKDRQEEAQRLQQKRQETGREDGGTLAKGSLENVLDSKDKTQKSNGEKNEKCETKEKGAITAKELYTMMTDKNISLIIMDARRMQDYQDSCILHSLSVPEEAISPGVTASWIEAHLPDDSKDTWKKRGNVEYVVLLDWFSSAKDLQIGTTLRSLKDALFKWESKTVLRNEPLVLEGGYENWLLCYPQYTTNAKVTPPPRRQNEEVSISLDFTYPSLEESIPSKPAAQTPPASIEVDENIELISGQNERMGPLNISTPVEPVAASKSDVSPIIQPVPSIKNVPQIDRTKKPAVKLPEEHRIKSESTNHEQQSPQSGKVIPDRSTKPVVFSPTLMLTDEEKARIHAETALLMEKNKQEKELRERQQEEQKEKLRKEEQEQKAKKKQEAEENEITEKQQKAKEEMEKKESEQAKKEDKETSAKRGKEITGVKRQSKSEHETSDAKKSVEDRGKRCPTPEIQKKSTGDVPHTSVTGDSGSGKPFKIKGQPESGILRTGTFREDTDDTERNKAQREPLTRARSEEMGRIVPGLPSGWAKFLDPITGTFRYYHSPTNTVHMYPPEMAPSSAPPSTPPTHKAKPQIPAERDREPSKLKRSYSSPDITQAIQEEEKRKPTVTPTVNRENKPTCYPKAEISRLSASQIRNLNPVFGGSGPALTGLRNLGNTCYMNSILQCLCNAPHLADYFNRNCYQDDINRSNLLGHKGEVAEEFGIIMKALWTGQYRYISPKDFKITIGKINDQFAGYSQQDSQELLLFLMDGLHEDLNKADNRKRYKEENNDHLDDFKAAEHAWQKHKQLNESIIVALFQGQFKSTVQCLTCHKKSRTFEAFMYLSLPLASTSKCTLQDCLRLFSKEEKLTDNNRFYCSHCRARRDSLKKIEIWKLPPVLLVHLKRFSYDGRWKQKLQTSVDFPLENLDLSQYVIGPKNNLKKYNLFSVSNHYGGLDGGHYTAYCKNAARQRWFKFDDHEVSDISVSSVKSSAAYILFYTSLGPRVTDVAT
Test: log2 ratio of Biotin-Ahx-Ub-VS probe labelling (fragment/DMSO); higher = less target engagement (more negative = stronger competition), active = hit call of the paper (q ≤ 0.05, log2 ratio ≤ -1)
Details: compound concentration: 200 uM; treatment time: 3 h
Criterion: log2 ratio of Biotin-Ahx-Ub-VS probe labelling meeting or surpassing -0.05. Met: yes (1). Not met: no (0).

>  <molecule>
N#Cc1ccc(Cl)cc1NC(=O)CCl

>  <group>
yes (1)

$$$$
>  <molecule>
CN(C)C(=O)c1ccc(CNC(=O)CCl)cc1

>  <group>
no (0)

$$$$
>  <molecule>
Cl.O=C(CCl)NCc1ccnc(Oc2ccccc2F)c1

>  <group>
no (0)

$$$$
>  <molecule>
CC1CN(c2ccc(NC(=O)CCl)cc2)CC(C)O1 (configuration not stated)

>  <group>
no (0)

$$$$
>  <molecule>
Cc1ccc(CC(NC(=O)CCl)c2ccccn2)cc1.Cl (configuration not stated)

>  <group>
yes (1)

$$$$

API: above_or_equal(metric=log2 ratio of Biotin-Ahx-Ub-VS probe labelling, cutoff=-0.05) for item `O=C(CCl)Nc1ccccc1C(F)(F)F`
yes (1)

Now the same for Cc1ccc(N(C(=O)CCl)C2C=CS(=O)(=O)C2)cc1 (configuration not stated)
yes (1)
